Source: patent US11534428B1

# assay: Part B: single-sequence crossover, compound (2) at steady state co-administered with atosiban, nifedipine or betamethasone
# condition label: female, human, in vivo, iv, 60.75 mg, time of peak plasma concentration, co-administered with compound (2), compound (2) 1,000 mg per day at steady state
Bridge positions count the residues as written; N and C are the ends. Square brackets hold non-standard residues; d marks the D form. Peptide text beside a SMILES is read from it. Orn = NCCC[C@H](N)C(=O)O; Mpa = O=C(O)CCS
metric name: Tmax (min)
Give bare numbers, in min.

For the compound shown here, CCOc1ccc(C[C@H]2NC(=O)CCSSC[C@@H](C(=O)N3CCC[C@H]3C(=O)N[C@@H](CCCN)C(=O)NCC(N)=O)NC(=O)[C@H](CC(N)=O)NC(=O)[C@H]([C@@H](C)O)NC(=O)[C@H]([C@@H](C)CC)NC2=O)cc1 [atosiban] ([Mpa][dY](Et)ITNCP[Orn]G-NH2; disulfide 1-6) , give the reported Tmax.
15
